Tested on: parent elite stiff stalk inbred corn
Assay: Postemergence herbicide application in greenhouse: fresh shoot weight and visual injury
Type: in vivo
Recorded Conditions: postemergence, 200 g/ha (glyphosate 3472 g ae/ha, glufosinate ammonium 1870 g/ha); 0% no injury, 100% plant death; mean of four replications
Attribute Measured: % Visual Injury (%)
Output spec: scalar in %, unitless text.

// sample CCCOc1nn(C(=O)NS(=O)(=O)c2ccccc2C(=O)OC)c(=O)n1C [Propoxycarbazone Na^+, Propoxycarbazone] , its % Visual Injury was 100

// sample COC(=O)c1cccc(C)c1S(=O)(=O)NC(=O)Nc1nc(OCC(F)(F)F)nc(N(C)C)n1 [Triflusulfuron-methyl] , its % Visual Injury was 100

// sample CCOc1nc(F)cc2nc(S(=O)(=O)Nc3c(Cl)cccc3C(=O)OC)nn12 [Chloransulam-methyl] , its % Visual Injury was 96

// sample COc1cc(OC)nc(Sc2cccc(Cl)c2C(=O)[O-])n1.[Na+] [Pyrithiobac Na^+, Pyrithiobac] , its % Visual Injury was 100

// sample COC(=O)c1ccc(I)cc1S(=O)(=O)NC(=O)Nc1nc(C)nc(OC)n1 [Iodosulfuron-methyl Na^+, Iodosulfuron-methyl] , its % Visual Injury was 100
